Entries and their measured TGI follow.
# System: PC-3 prostate
# TEST DETAILS: NCI tumour cell line growth inhibition, 48 h

Answered cases to consult:
{"MOLECULE": "CC(=O)N1C(=O)/C(=C\\C(=O)c2ccc(Cl)cc2)c2ccccc21", "EXPERIMENTAL READOUT": "TGI", "TEST VALUE": "19.6 µM"}
{"MOLECULE": "N#Cc1c(NC(=S)Nc2ccccc2)sc2c1CCCC2", "EXPERIMENTAL READOUT": "TGI", "TEST VALUE": "> 100 µM"}
{"MOLECULE": "CCCCCC(=O)OCC1(CO)C/C(=C/CC(C(C)C)C(C)C)C(=O)O1 (configuration not stated)", "EXPERIMENTAL READOUT": "TGI", "TEST VALUE": "> 75 µM"}
{"MOLECULE": "NC(=O)c1nnc2c(F)cccc2c1N", "EXPERIMENTAL READOUT": "TGI", "TEST VALUE": "> 100 µM"}
{"MOLECULE": "Nc1cc2ccncc2c2ccccc12", "EXPERIMENTAL READOUT": "TGI", "TEST VALUE": "> 100 µM"}

Req: Look at this molecule and give its reported TGI. CN1CCN(Cc2ccc(NC(=O)c3cncc(C#Cc4cncc5[nH]ncc45)c3)cc2C(F)(F)F)CC1
Resp: 5.68 µM

Req: Quick one: Clc1ccc(C2=NNC(c3cccc(Cl)c3)C2)cc1 (configuration not stated)
Resp: 97.4 µM

Req: Quick one: S=C1NNC(=S)NN1
Resp: > 1 µM

Req: Quick one: Cn1ccnc1C(=O)/C=C/c1ccc(CC(=O)Nc2cc(F)c(F)c(F)c2)cc1
Resp: 5.65 µM

Req: Quick one: CCN(CC)c1ccc(/C=C2/NC(=O)NC2=O)cc1
Resp: > 100 µM

Req: Quick one: C[C@@H]1CC[C@H]2C(CN(C)CC3=C(C(F)(F)F)O[C@@H]4O[C@@]5(C)CC[C@H]6[C@H](C)CC[C@@H]3[C@@]46OO5)=C(C(F)(F)F)O[C@@H]3O[C@@]4(C)CC[C@@H]1[C@]32OO4
Resp: > 100 µM

Req: Quick one: CCc1cc(Nc2nccc(-c3c(-c4ccc(OC)c(C(=O)Nc5c(F)cccc5F)c4)nc4ccccn34)n2)c(OC)cc1N1CCC(N2CCN(S(C)(=O)=O)CC2)CC1
Resp: > 100 µM

Req: Quick one: Cc1nc2cccc(F)c2c(=O)n1-c1nnc(C2CC2)s1
Resp: > 10 µM
